- experimentDescription: Leishmania major promastigote growth inhibition, primary screen (AID 1063);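 also: promastigotes grown with compound for 44 hours at 28 °C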
- runParameters: Leishmania major promastigotes, resazurin fluorescence viability; at 10 µM
In all, about 200,000 compounds went through this assay and about 18,000 (9%) were called active. Rule as the data show it: active = inhibition above about 50%; inactive = the rest. What follows is part of a selection rich in actives, with near analogues and random picks from the rest.
Labels: active, inactive

{"compound": "Cc1cc([N+](=O)[O-])c(-c2ccc(/C=N/n3cnnc3)o2)cc1Cl", "qualitativeLabel": "inactive"}
{"compound": "O=C(Nc1nnc(C2COc3ccccc3O2)o1)c1ccc(F)cc1 (stereo unspecified)", "qualitativeLabel": "active"}
{"compound": "c1ccc2c(c1)OCC(c1nn3cnnc3s1)O2 (stereo unspecified)", "qualitativeLabel": "inactive"}
{"compound": "Cc1ccc(Cl)cc1-c1ccc(/C=N/n2cnnc2)o1", "qualitativeLabel": "active"}
{"compound": "Cc1onc(-c2ccccc2)c1C(=O)NNC(=S)NC(=O)c1ccc(F)cc1", "qualitativeLabel": "inactive"}
{"compound": "Cc1cc(-c2ccc(/C=N/n3cnnc3)o2)c([N+](=O)[O-])cc1C", "qualitativeLabel": "inactive"}

---

Overview of recorded inhibition for various compounds
- experimentDescription: Leishmania major promastigote growth inhibition, primary screen (AID 1063);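 also: promastigotes grown with compound for 44 hours at 28 °C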
- runParameters: Leishmania major promastigotes, resazurin fluorescence viability; at 10 µM; stronger effect = higher value
The whole screen tested about 200,000 compounds, of which about 18,000 (9%) were called active. The sample as a whole holds a higher share of actives than the screen did.

{"compound": "O=C(CCCN1C(=O)/C(=C/c2ccccc2)SC1=S)Nc1ccc(O)cc1", "readingUnit": "%", "inhibition": 56.3}
{"compound": "CCOc1cccc(SCc2noc(C(=O)NC(C)C)c2C(=O)O)c1", "readingUnit": "%", "inhibition": -11.1}
{"compound": "COC(=O)c1c(CCl)noc1C(=O)NC(C)C", "readingUnit": "%", "inhibition": 100}
{"compound": "COC(=O)c1ccc(NC(=O)CSc2nnc(-c3ccncc3)n2C)cc1", "readingUnit": "%", "inhibition": 5.08}
{"compound": "O=C(CCCN1C(=O)/C(=C/c2ccco2)SC1=S)Nc1ccccc1", "readingUnit": "%", "inhibition": 10.2}
{"compound": "COC(=O)C1=C(C)N(c2ccc(C)cc2)/C(=C/c2ccc(O)cc2)C1=O", "readingUnit": "%", "inhibition": 97.8}
{"compound": "Cc1nn(C)c(C)c1S(=O)(=O)N1CCC(CO)(Cc2ccc(Cl)cc2)CC1", "readingUnit": "%", "inhibition": 2.5}
{"compound": "O=C(CCCN1C(=O)/C(=C\\c2ccco2)SC1=S)Nc1cccc2ccccc12", "readingUnit": "%", "inhibition": 30.1}
{"compound": "Cc1ccc(N(C(=O)c2sc(C)nc2C)C(C(=O)NC(C)(C)C)c2ccncc2)cc1 (stereo unspecified)", "readingUnit": "%", "inhibition": -0.8}
{"compound": "OCCC1CN(Cc2ccccc2-c2ccco2)CCN1Cc1ccsc1 (stereo unspecified)", "readingUnit": "%", "inhibition": 9.42}
{"compound": "COC(=O)c1onc(-c2c(OC)cc(OC)cc2OC)c1C(=O)OC", "readingUnit": "%", "inhibition": -8.2}

---

Overview of recorded inhibition for various molecules
- experimentDescription: Leishmania major promastigote growth inhibition, primary screen (AID 1063);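 also: promastigotes grown with compound for 44 hours at 28 °C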
- runParameters: Leishmania major promastigotes, resazurin fluorescence viability; at 10 µM; stronger effect = higher value
The whole screen tested about 200,000 compounds, of which about 18,000 (9%) were called active. This is one part of a sample in which actives are shown more often than they occur.
recordedEndpoint: inhibition (%)

{"molecule": "O=C(CSc1nc(C2CC2)nc2ccccc12)Nc1ccc2c(c1)OCCO2", "recordedEndpoint": "inhibition", "readingUnit": "%", "endpointResult": 6.82}
{"molecule": "CCC(C)N(C)C1CCN(C(=S)Nc2ccc(OC)cc2)CC1 (stereo unspecified)", "recordedEndpoint": "inhibition", "readingUnit": "%", "endpointResult": 34.2}
{"molecule": "Cc1ccnc(NC(=O)CCC(=O)N(CC(=O)NCc2ccccc2)Cc2ccco2)c1", "recordedEndpoint": "inhibition", "readingUnit": "%", "endpointResult": -5.25}
{"molecule": "CC(=O)c1cc(C#N)c(SCC(=O)Nc2nccs2)nc1C", "recordedEndpoint": "inhibition", "readingUnit": "%", "endpointResult": 1.83}
{"molecule": "CCOc1ccc(NC(=S)N2CCCCCC2)cc1", "recordedEndpoint": "inhibition", "readingUnit": "%", "endpointResult": 3.65}
{"molecule": "CCn1c(SCC(=O)Nc2nccs2)nnc1-c1ccco1", "recordedEndpoint": "inhibition", "readingUnit": "%", "endpointResult": 0.22}
{"molecule": "CN(C(=O)CSc1nc(C2CC2)nc2ccccc12)c1nc(-c2ccccc2)cs1", "recordedEndpoint": "inhibition", "readingUnit": "%", "endpointResult": 54.6}
{"molecule": "Cc1ccc(C)c(N(CC(=O)NCc2ccco2)C(=O)CCC(=O)Nc2ccccn2)c1", "recordedEndpoint": "inhibition", "readingUnit": "%", "endpointResult": 53.3}
{"molecule": "CCN1CCN(CCCCOc2ccccc2F)CC1", "recordedEndpoint": "inhibition", "readingUnit": "%", "endpointResult": 47.3}
{"molecule": "Cc1cccc(N2CCC(NCc3c(C(=O)N4CCCCC4)nc4c(C)cccn34)CC2)c1", "recordedEndpoint": "inhibition", "readingUnit": "%", "endpointResult": 17.5}
{"molecule": "O=[N+]([O-])c1ccc(Sc2n[nH]c(-c3ccco3)n2)nc1", "recordedEndpoint": "inhibition", "readingUnit": "%", "endpointResult": 4.36}

Source listed as PubChem BioAssay AID1063.
